Below are compounds with their IC50 as measured on Acetylcholinesterase (Homo sapiens, UniProt P22303).
Sequence (P22303 whole entry): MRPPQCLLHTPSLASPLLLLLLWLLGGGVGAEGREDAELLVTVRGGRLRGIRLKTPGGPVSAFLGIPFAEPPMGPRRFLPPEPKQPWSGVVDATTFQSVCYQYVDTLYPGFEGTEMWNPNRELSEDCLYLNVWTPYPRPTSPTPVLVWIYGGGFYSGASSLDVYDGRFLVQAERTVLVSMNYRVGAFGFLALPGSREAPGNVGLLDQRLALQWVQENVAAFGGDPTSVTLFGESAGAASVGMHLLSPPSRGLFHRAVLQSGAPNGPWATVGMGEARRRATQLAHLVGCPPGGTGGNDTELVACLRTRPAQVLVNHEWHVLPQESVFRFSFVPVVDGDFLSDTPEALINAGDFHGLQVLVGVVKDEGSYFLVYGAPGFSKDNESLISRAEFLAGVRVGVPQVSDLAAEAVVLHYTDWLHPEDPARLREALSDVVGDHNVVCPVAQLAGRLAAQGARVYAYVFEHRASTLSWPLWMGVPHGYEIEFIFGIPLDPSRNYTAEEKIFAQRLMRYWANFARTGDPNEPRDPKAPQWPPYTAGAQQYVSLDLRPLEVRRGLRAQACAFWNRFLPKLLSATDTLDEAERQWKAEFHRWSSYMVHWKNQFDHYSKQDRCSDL
The reply should contain only the number, in nM.

Request - read-out IC50 | tested on Acetylcholinesterase (Homo sapiens, UniProt P22303) | compound CN(CCCOc1ccc2c(=O)c3ccccc3oc2c1)Cc1cccc(OC(=O)NCCCCCCCCCN2CCOCC2)c1
8.9

Now give it for CNC(=O)Oc1cccc(CN(C)CCCCCCCOc2ccc3c(=O)c4ccccc4oc3c2)c1 too.
51.6

###

TESTED SYSTEM: Acetylcholinesterase (Homo sapiens, UniProt P22303)
PROCEDURE DETAILS: Inhibition of human AChE using acetylthiocholine iodide as substrate preincubated for 10 mins followed by substrate addition by spectrophotometry
MEASURED ENDPOINT: IC50

# query: IC50 of entry CCOC(=O)C1=CN(C)c2cccc(OC(=O)N(C)C)c2C1
> 1000 µM

###

TESTED SYSTEM: Amine oxidase [flavin-containing] B (Homo sapiens)
Sequence (P27338 whole entry): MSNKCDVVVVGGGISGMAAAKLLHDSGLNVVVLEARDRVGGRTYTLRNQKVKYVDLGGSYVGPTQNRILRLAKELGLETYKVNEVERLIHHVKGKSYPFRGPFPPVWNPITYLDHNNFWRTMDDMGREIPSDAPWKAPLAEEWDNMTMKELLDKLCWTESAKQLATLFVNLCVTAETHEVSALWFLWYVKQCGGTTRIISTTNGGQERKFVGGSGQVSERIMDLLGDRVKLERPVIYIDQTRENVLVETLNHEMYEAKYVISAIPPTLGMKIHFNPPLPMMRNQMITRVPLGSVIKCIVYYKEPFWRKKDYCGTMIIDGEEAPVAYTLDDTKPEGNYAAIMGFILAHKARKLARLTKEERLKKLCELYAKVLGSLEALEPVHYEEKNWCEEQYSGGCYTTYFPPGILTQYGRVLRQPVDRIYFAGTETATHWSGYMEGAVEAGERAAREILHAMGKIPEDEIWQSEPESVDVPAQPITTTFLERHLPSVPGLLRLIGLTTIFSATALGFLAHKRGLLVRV
PROCEDURE DETAILS: Displacement of 14C-phenylethylamine from MAO-B (unknown origin) preincubated for 60 mins followed by substrate addition measured after 20 mins in presence of clorgyline by liquid scintillation counting method
MEASURED ENDPOINT: pIC50
For clarity, pIC50 is expressed as the negative log10 of concentration in mol/L.

Which pIC50 value belongs to C#CCN(C)C(C)Cc1cccc(OC(=O)N(C)CC)c1 (stereo unspecified) ?
7.00

###

TESTED SYSTEM: UniProtKB P27338
PROCEDURE DETAILS: Inhibition of MAO-B (unknown origin)
MEASURED ENDPOINT: log10(IC50) (log10 of the value in µM)
Field: value | Transform: log10 | Quantity: IC50 | Unit: µM

Please give the measured log10(IC50) for this compound: C#CCN(C)C1CCc2cccc(OC(=O)N(C)C)c21 (configuration not stated)
-0.48

Try this compound next: C#CCNC1CCc2c(OC(=O)N(C)CC)cccc21 (configuration not stated)
-0.08

Try C#CCNC1CCc2c(OC(=O)N(C)C)cccc21 (configuration not stated) next.
-0.59

Same question for C#CCN(C)C1CCc2c(OC(=O)N(C)CC)cccc21 (configuration not stated) please.
-1.57

// repeat for C#CCN[C@@H]1CCc2ccc(OC(=O)N(C)CC)cc21 and report
0.30

###

Task for the reader: assign each of the following compounds its reported pKi.
TESTED SYSTEM: Acetylcholinesterase (Homo sapiens, UniProt P22303)
PROCEDURE DETAILS: Binding affinity to human AChE assessed as inhibition constant
Keep it numeric: pKi is minus log10 of the concentration in mol/L.

Entry CCN(CC)C(=O)OC1C[N+]2(C)CCC1CC2 (configuration not stated) : reported pKi = ?
5.46

Then this compound: O=C(Nc1ccccc1)OC1CN2CCC1CC2 (configuration not stated)
6.00

###

Would you mind telling me the reported IC50 of each entry?
TESTED SYSTEM: Cholinesterase (Homo sapiens, UniProt P06276)
Sequence (P06276 whole entry): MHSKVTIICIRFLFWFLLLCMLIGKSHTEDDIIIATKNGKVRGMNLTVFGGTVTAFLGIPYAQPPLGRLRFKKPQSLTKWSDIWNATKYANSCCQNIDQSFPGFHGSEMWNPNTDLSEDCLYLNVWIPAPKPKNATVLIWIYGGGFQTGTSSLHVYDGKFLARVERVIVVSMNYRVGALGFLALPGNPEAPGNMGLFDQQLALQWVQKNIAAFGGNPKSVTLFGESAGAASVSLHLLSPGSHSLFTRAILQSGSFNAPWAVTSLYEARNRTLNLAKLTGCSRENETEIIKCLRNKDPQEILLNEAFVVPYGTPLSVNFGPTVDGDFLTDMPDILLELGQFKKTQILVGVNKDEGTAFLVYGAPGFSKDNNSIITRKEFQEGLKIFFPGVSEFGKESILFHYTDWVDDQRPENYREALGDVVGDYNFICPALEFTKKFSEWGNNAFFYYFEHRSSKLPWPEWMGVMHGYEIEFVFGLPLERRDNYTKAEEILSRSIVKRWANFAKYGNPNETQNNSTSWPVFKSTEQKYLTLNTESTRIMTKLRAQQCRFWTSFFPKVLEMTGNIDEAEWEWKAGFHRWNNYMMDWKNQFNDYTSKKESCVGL
PROCEDURE DETAILS: Inhibition of human serum BChE using butyrylthiocholine as substrate by Ellman's method
Lab book: enter the figure in nM, no units written.

Given CNC(=O)Oc1cccc(CN(C)CCCCCCCOc2ccc3c(=O)c4ccccc4oc3c2)c1 , state its recorded IC50.
0.32

CN(CCCOc1ccc2c(=O)c3ccccc3oc2c1)Cc1cccc(OC(=O)NCCCCCCCCCN2CCOCC2)c1 , same question.
29.3

###

TESTED SYSTEM: Cholinesterase (Homo sapiens, UniProt P06276)
PROCEDURE DETAILS: Inhibition of human BChE
Values of IC50 strictly less than 2000 nM map to true, and values of at least 2000 nM map to false.

Does the reported IC50 of CCC(C)(C)NCC(O)c1cc(O)cc(OC(=O)N(C)C)c1 (stereo unspecified) stay below 2000 nM?
true

Now give it for CCN1/C(=C/C(C)=O)Sc2ccc(OC(=O)OCCOCCNC(=O)c3cc4c(OC(=O)N(C)C)cccc4[n+](C)c3)cc21 too.
true

C#CCN(C)C1CCc2c(OC(=O)N(C)CC)cccc21 (stereo unspecified) ?
false

Try the compound C#CCNC1CCc2c(OC(=O)N(C)CC)cccc21 (stereo unspecified)
false

// next record C#CCN[C@@H]1CCc2ccc(OC(=O)N(C)CC)cc21
false

Try this compound too: O=C(Oc1cc(O)c2c(=O)cc(-c3ccc(O)cc3)oc2c1)N1CCCCC1
true

###

TESTED SYSTEM: Amine oxidase [flavin-containing] A (Homo sapiens, UniProt P21397)
Sequence (P21397 whole entry): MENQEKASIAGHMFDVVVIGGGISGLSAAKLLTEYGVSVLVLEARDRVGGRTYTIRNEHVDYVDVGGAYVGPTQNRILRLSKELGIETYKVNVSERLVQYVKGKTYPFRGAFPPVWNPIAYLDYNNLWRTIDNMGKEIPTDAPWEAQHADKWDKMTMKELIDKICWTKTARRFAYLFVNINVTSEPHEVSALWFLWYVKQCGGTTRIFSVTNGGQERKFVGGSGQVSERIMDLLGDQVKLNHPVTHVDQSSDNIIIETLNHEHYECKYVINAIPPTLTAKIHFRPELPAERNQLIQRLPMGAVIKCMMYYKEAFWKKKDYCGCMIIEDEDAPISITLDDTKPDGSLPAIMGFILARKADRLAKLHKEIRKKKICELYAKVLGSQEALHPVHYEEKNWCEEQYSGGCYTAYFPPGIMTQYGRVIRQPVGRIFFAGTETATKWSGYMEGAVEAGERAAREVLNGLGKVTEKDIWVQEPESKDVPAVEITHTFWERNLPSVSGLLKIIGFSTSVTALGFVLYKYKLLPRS
PROCEDURE DETAILS: Inhibition of recombinant human MAO-A using p-tyramine as substrate preincubated for 15 mins followed by substrate addition measured upto 20 mins by Amplex red assay
MEASURED ENDPOINT: IC50 (µM)
The reply should contain only the number, in µM.

For Amine oxidase [flavin-containing] A (Homo sapiens, UniProt P21397), provide IC50 of Cc1c(Cl)c(=O)oc2cc(OCCCCSC(=S)N3C(C)CCCC3C)ccc12 (stereo unspecified) please.
5.85

###

TESTED SYSTEM: Acetylcholinesterase (Homo sapiens)
PROCEDURE DETAILS: Inhibition of AChE (unknown origin)
MEASURED ENDPOINT: IC50 (nM)
Give the value in nM but do not write nM after it.

For the compound shown here, CCNC(=O)Oc1ccc2c(c1)[C@]1(C)CCO[C@@H]1O2 , give the reported IC50.
36

Lookup CN1c2ccc(OC(=O)NCC3CCCCC3)cc2[C@]2(C)CCN(CCc3ccccc3)[C@H]12
2500

###

Give pIC50 for every item shown.
TESTED SYSTEM: Cholinesterase (Equus caballus)
PROCEDURE DETAILS: Inhibition of equine BChE
# pIC50 is unitless: minus log10 of the molar concentration; print number only

Suppose we examine the molecule CCCCCCCNC(=O)Oc1ccc2[nH]cc(CCNC(=O)c3ccccc3Nc3ccccc3)c2c1 ; what pIC50 value has been reported?
8.15

Please give the result for O=C(Nc1cccc([N+](=O)[O-])c1)OCCNc1c2ccccc2nc2ccccc12 too.
7.77

Next record, please: CCN(C)C(=O)Oc1ccc(CNc2nc3c(cnn3C3CCCC3)c(=O)[nH]2)cc1OC
5.48

Also CCCCCCCNC(=O)Oc1ccc(F)c(-c2coc3c4c(ccc3c2=O)OC(C)(C)C=C4)c1 , if possible.
7.03

Next: COc1cc(CNc2nc3c(cnn3C3CCCC3)c(=O)[nH]2)ccc1OC(=O)N(C)C
6.01

Here is the next molecule: CCN(C)C(=O)Oc1cccc2c1NCC2CCC(=O)OC (centres undefined)
4.21

Thanks! And CCCCCCCNC(=O)OCCN1CCN(CCCCCOc2ccc3ccc(=O)[nH]c3c2)CC1 ?
5.74

And CN(C)C(=O)Oc1cccc(-c2coc3c4c(ccc3c2=O)OC(C)(C)C=C4)c1 ?
6.17

Try the molecule O=c1ccc2ccc(OCCCCSC(=S)N3CCCCC3)cc2[nH]1
6.80

###

TESTED SYSTEM: Carbonic anhydrase 2 (Homo sapiens, UniProt P00918)
MEASURED ENDPOINT: pKi
# pKi is unitless: minus log10 of the molar concentration; print number only

Give pKi (Carbonic anhydrase 2 (Homo sapiens, UniProt P00918)) of the following molecule: COc1cccc2c1CCC(NC(=O)OCc1ccccc1)C2 (configuration not stated)
8.13

Again, but for COc1cc2c(c(OC)c1)CC(NC(=O)OCc1ccccc1)C2 (configuration not stated)
8.13

###

TESTED SYSTEM: Cholinesterase (Equus caballus, UniProt P81908)
Sequence (P81908 whole entry): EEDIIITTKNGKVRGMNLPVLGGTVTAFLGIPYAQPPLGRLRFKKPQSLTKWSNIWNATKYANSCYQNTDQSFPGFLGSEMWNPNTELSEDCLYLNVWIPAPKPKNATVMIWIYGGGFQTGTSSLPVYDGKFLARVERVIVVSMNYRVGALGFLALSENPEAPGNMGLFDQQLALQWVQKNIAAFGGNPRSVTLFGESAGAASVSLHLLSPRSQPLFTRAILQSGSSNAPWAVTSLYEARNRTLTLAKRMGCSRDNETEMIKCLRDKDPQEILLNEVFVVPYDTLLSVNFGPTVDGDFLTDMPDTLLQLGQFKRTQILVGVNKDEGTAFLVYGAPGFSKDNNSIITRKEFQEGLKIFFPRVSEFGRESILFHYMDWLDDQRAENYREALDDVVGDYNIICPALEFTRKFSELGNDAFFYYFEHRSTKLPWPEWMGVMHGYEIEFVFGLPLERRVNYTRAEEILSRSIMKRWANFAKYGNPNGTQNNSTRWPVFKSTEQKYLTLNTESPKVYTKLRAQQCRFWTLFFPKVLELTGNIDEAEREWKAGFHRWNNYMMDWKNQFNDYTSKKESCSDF
PROCEDURE DETAILS: Inhibition of equine serum BChE using butyrylthiocholine as substrate preincubated for 60 mins by Ellman's method
MEASURED ENDPOINT: pIC50
Remember the convention: pIC50 equals -log10 of concentration in molar.

Entry under review: C#CCN(C)C(C)Cc1cccc(OC(=O)N(C)CC)c1 (stereo unspecified) . Reported pIC50?
5.82

###

TESTED SYSTEM: Acetylcholinesterase (Homo sapiens, UniProt P22303)
PROCEDURE DETAILS: Binding affinity to AChE (unknown origin) assessed as inhibition constant using acetylthiocholine iodide as substrate preincubated for 10 mins followed by substrate addition by Ellman's method
MEASURED ENDPOINT: IC50 (nM)
Express the result in nM but write the number alone.

Given COc1cccc2c1CCCC2NS(=O)(=O)NC(=O)OCc1ccccc1 (stereo unspecified) , state its recorded IC50.
0.209

###

PROCEDURE DETAILS: Toxicity in mouse assessed as lethal dose
CONDITION NOTES: in vivo
MEASURED ENDPOINT: LD50 (mg/kg)
Enter your answer as a number in mg/kg; do not include the unit.

# LD50 lookup, item CCCCCCCNC(=O)Oc1ccc2c(c1)[C@]1(C)CCN(C)[C@@H]1N2C [EPTASTIGMINE]
35

###

TESTED SYSTEM: Cholinesterases; ACHE & BCHE (Homo sapiens) (UniProt P06276+P22303)
Sequence (P06276 whole entry, looked up): as the sequence (P06276 whole entry) above
Sequence (P22303 whole entry, looked up): as the sequence (P22303 whole entry) above
PROCEDURE DETAILS: Selectivity index, ratio of IC50 for recombinant human serum BChE to IC50 for recombinant human serum AChE
Format: protein assay
MEASURED ENDPOINT: Ratio IC50
Lab note: jot the number down without any unit.

Give the measured Ratio IC50 of CNC(=O)Oc1cccc(CN(C)CCCCCCCOc2ccc(-c3cc(=O)c4ccccc4o3)cc2)c1 .
96

Try this molecule next: CNC(=O)Oc1cccc(CN(C)CCCCCCOc2ccc3c(c2)O/C(=C\c2cc(OC)c(OC)c(OC)c2)C3=O)c1
261

# repeat for CNC(=O)Oc1cccc(CN(C)CCCCCCOc2ccc(C(=O)/C=C/c3cc(OC)c(OC)c(OC)c3)c(O)c2)c1
23

What do you have for CNC(=O)Oc1cccc(CN(C)CCCCCCCOc2ccc(-c3cc4ccccc4oc3=O)cc2)c1 ?
49

Please do the same for CNC(=O)Oc1cccc(CN(C)CCCCCCCOc2cccc(-c3cc(=O)c4ccccc4o3)c2)c1 as well.
122

Values from ChEMBL document CHEMBL5214927
